Origin of measurements: ChEMBL document CHEMBL1143171

Target: Peroxisome proliferator-activated receptor gamma (Homo sapiens)
Assay: Agonist activity at human PPARgamma expressed in CV1 cells at 10 uM by transactivation assay
Type: functional, cell-based
Conditions: CV-1
REPORTED_METRIC: Activity (%)

Consider the worked cases shown below.
chemical_smiles=Cc1ccccc1-c1nc(CCCC[C@H]2CO[C@@](C)(C(=O)O)OC2)c(C)o1 reported_metric=Activity numeric_result=23
chemical_smiles=Cc1ccc(-c2nc(CCCC[C@H]3CO[C@@](C)(C(=O)O)OC3)c(C)o2)c(C)c1 reported_metric=Activity numeric_result=35
chemical_smiles=Cc1ccc(-c2nc(CCCC[C@H]3CO[C@@](C)(C(=O)O)OC3)c(C)n2C)cc1 reported_metric=Activity numeric_result=0

1. Cc1oc(-c2ccc(C(F)(F)F)cc2)nc1CCCC[C@H]1CO[C@@](C)(C(=O)O)OC1
2. Cc1ccc(-c2nc(CCCC[C@H]3CO[C@@](C)(C(=O)O)OC3)c(C)s2)cc1
// which entry reports the smaller Activity, 1 or 2 ? Bench note: the answer is the label of the chosen record.
2
